# Protocol: MARISA ranolazine plasma concentration
# Assay type: in vivo
# Experimental parameters: human, oral, 500 mg BID, read-out: Ranolazine Plasma Concentration, Peak, mean (SD)

{"Compound": "COc1ccccc1OCC(O)CN1CCN(CC(=O)Nc2c(C)cccc2C)CC1 (racemic)", "concentration at 4 h (ng/mL)": 1120}

---

# Protocol: Peak and trough ranolazine plasma concentrations, IR regimens (Example 3)
# Format: in vivo
# Experimental parameters: human, oral, 400 mg, All Patients, IR 400 mg bid, read-out: Ranolazine Plasma Concentration, Peak, mean (SD)

{"Compound": "COc1ccccc1OCC(O)CN1CCN(CC(=O)Nc2c(C)cccc2C)CC1 (racemic)", "concentration at 1 h": "1880 ng/mL"}

---

# Protocol: Solubility of ranolazine in aqueous solutions by pH
# Type: physicochemical
# Experimental parameters: aqueous solution, aqueous buffer; Solution pH 4.81

{"Molecule": "COc1ccccc1OCC(O)CN1CCN(CC(=O)Nc2c(C)cccc2C)CC1 (racemic)", "Unit descriptor": "mg/mL", "solubility": 161}

---

# Protocol: Peak and trough ranolazine plasma concentrations, IR regimens (Example 3)
# Type: in vivo
# Experimental parameters: male, human, oral, 267 mg, Males, IR 267 mg tid, read-out: Ranolazine Plasma Concentration, Trough, mean (SD)
Recorded endpoint: concentration at 8 h (ng/mL)

{"Compound": "COc1ccccc1OCC(O)CN1CCN(CC(=O)Nc2c(C)cccc2C)CC1 (racemic)", "Recorded endpoint": "concentration at 8 h", "Numeric result": 316}

---

# Protocol: Solubility of ranolazine in aqueous solutions by pH
# Assay type: physicochemical
# Experimental parameters: aqueous solution, aqueous buffer; Solution pH 12.66

{"Molecule": "COc1ccccc1OCC(O)CN1CCN(CC(=O)Nc2c(C)cccc2C)CC1 (racemic)", "solubility, µg/mL": 180}

---

# Protocol: Peak and trough ranolazine plasma concentrations, IR regimens (Example 3)
# Assay type: in vivo
# Experimental parameters: male, human, oral, 400 mg, Males, IR 400 mg tid, read-out: Ranolazine Plasma Concentration, Trough, mean (SD)
# Description: In this Example, the safety and anti-ischemic effects of high plasma ranolazine levels in a large group of angina patients was evaluated and the duration of any effects during steady-state dosing with bid and tid regimens was assessed. […] Exercise testing parameters and ranolazine free base concentrations were determined at peak and trough plasma levels. […]

{"Molecule": "COc1ccccc1OCC(O)CN1CCN(CC(=O)Nc2c(C)cccc2C)CC1 (racemic) [Ranolazine]", "Unit descriptor": "ng/mL", "concentration at 8 h": 518}

---

# Protocol: Solubility of ranolazine in aqueous solutions by pH
# Type: physicochemical
# Experimental parameters: aqueous solution, aqueous buffer; Solution pH 4.89
Recorded endpoint: solubility (mg/mL)

{"Compound": "COc1ccccc1OCC(O)CN1CCN(CC(=O)Nc2c(C)cccc2C)CC1 (racemic)", "Recorded endpoint": "solubility", "Numeric result": 73.8}
